# system-tested: Gag-Pol polyprotein (Human immunodeficiency virus type 1 group M subtype B (isolate HXB2))
# assay-comment: RT Assay
# recorded-conditions: 37 °C
Catalogue of pIC50 values
A value of pIC50 is the negative decimal logarithm of a concentration given in moles per litre.

{"molecule": "CC1=C(C(=O)NC(=O)CN2C(=O)C(=O)c3ccccc32)C(C)NC(=O)N1 (stereo not given)", "pIC50": 7.19}
{"molecule": "CCC1NC(=O)NC(C)=C1C(=O)NC(=O)CN1C(=O)C(=O)c2ccccc21 (stereo not given)", "pIC50": 7.17}

Below: the item to evaluate.
Query: // fetch pIC50 given entry `Cc1cc(/C=C/C#N)cc(C)c1Nc1ccnc(Nc2ccc(C#N)cc2)n1`
Response: 7.17
